Entries and their measured log10(IC50) follow.
Assayed system: Fatty-acid amide hydrolase 1 (Rattus norvegicus)
Sequence (P97612 whole entry): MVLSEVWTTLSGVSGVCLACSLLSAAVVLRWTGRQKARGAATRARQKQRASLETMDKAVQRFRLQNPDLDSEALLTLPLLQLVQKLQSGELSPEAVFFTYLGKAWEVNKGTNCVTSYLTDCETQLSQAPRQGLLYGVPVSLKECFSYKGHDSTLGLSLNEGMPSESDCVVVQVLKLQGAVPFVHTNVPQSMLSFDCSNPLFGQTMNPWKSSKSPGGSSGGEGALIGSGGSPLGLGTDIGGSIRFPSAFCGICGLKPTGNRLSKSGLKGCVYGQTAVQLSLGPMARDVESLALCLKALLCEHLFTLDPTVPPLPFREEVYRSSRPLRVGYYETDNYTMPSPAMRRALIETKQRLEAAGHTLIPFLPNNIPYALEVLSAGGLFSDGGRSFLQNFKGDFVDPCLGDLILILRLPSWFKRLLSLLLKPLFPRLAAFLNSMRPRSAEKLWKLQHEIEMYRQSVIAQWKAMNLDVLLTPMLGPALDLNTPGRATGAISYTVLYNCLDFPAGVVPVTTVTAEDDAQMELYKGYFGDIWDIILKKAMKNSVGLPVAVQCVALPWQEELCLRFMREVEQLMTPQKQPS
Parameter: log10(IC50) (log10 of the value in nM)

[
  {
    "Cpd smiles": "COC(=O)c1cccc(-c2ccc(C(=O)CCCCCCc3ccccc3)nn2)n1",
    "log10(IC50)": 4.00
  },
  {
    "Cpd smiles": "O=C(CCCCCCc1ccccc1)c1nnco1",
    "log10(IC50)": 0.00
  },
  {
    "Cpd smiles": "O=C(CCCCCCc1ccccc1)c1nnc(-c2ccccc2)o1",
    "log10(IC50)": 1.40
  },
  {
    "Cpd smiles": "O=C(CCCCCCc1ccccc1)c1nnn[nH]1",
    "log10(IC50)": 2.78
  },
  {
    "Cpd smiles": "COC(=O)c1cccc(-c2nnc(C(=O)CCCCCCc3ccccc3)o2)n1",
    "log10(IC50)": 0.90
  },
  {
    "Cpd smiles": "O=C(CCCCCCc1ccccc1)c1ncc(-c2cccs2)o1",
    "log10(IC50)": 1.74
  },
  {
    "Cpd smiles": "O=C(CCCCCCc1ccccc1)c1nncs1",
    "log10(IC50)": 2.48
  }
]
